Just for reference, patent US20230303681A1 is where these values come from.

# target: T1, human TMEM106B (human, UniProt Q9NUM4 2-274)
# T1 construct: Full-length, on transiently transfected HEK293 cells, or natively expressed on HeLa, U251 and A549 cells; also called huTMEM106B; huTMEM
# assay details: FACS HeLa;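 further: flow cytometry of cells incubated with hybridoma supernatant or purified antibody at 10 µg/ml for 1 h on ice, propidium iodide–positive dead cells gated out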
MFI listing for selected binders.
# output: bare number, no unit

**Query** Recorded MFI for anti-TMEM106B antibody TM-49 (antibody, V domains shown, mouse IgG from hybridoma) VH: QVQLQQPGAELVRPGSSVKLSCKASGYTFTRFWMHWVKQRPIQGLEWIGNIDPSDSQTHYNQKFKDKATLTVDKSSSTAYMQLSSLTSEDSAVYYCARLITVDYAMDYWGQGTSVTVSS VL: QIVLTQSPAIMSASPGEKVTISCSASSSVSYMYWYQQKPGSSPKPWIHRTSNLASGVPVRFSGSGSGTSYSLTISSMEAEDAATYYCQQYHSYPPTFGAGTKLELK , please?
**Result** 187

**Query** Recorded MFI for anti-TMEM106B antibody TM-33 (antibody, V domains shown, mouse IgG from hybridoma) VH: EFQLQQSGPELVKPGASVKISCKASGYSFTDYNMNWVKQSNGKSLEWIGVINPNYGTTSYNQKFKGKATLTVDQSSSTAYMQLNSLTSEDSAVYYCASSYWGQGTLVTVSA VL: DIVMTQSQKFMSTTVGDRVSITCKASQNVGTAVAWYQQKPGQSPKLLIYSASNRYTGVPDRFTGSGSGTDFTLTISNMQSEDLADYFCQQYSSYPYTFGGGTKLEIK , please?
**Result** 148
